Test: Solubility of the product
Assay type: physicochemical
Conditions: water
Where a name gives a salt, the structure may show the parent alone.
Parameter measured: solubility in water

[[record]]
compound = "CCC(C)(C)NCC(SCC(N)=O)c1ccc(Cl)c(Cl)c1 (stereo not shown) [CRL 42 059, hydrochloride]"
test_value = "soluble"

[[record]]
compound = "CC(C)(C)NCC(SCC(N)=O)c1ccc(Cl)c(Cl)c1 (single isomer, unassigned) [CRL 41 790, hydrochloride]"
test_value = "soluble"

[[record]]
compound = "CC(C)(C)NCC(SCC(N)=O)c1ccc(Cl)c(Cl)c1 (single isomer, unassigned) [CRL 41 789, hydrochloride]"
test_value = "soluble"


###

Each entry below lists one item and its recorded pKi value.
Biological target: site of dopamine reuptake (Rattus norvegicus, UniProt P23977)
Construct: The striata are removed immediately and then stored at -80° C. until used; from tissue; host or cells: rat striatum membranes (male CD Sprague-Dawley)
Sequence (P23977 whole entry): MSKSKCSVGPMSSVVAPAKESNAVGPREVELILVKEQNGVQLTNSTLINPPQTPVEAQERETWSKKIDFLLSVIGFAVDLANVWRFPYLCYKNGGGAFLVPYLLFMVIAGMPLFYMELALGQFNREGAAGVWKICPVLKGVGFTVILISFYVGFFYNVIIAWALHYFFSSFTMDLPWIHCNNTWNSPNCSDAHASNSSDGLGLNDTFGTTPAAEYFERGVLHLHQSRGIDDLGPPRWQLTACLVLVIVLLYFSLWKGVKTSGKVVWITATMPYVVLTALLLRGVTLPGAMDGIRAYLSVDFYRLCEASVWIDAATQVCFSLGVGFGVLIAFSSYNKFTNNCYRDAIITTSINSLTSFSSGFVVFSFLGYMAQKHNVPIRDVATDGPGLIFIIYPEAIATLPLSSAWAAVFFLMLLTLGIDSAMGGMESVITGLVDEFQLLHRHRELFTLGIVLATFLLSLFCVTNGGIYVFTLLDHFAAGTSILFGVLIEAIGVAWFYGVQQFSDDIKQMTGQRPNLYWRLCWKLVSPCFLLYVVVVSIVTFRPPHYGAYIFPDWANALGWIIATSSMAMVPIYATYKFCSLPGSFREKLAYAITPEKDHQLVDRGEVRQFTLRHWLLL
Assay: Inhibition of binding at the site of dopamine reuptake in vitro in rat striatum ([3H]mazindol)
Design: species or system rat (male, CD Sprague-Dawley)
Details: rat striatum, pH 7.7, mean of three tests, read-out: Inhibition of binding at the site of dopamine reuptake Ki
pKi: −log10 of the molar value. Structures can show the parent of a compound that is named as a salt.
Parameter measured: pKi

[[record]]
molecule = "CC(C)(C)NCC(SCC(N)=O)c1ccc(Cl)c(Cl)c1 (single isomer, unassigned) [CRL 41 789, hydrochloride]"
test_value = 7.62

[[record]]
molecule = "CC(C)(C)NCC(SCC(N)=O)c1ccc(Cl)c(Cl)c1 (single isomer, unassigned) [CRL 41 790, hydrochloride]"
test_value = 6.21


###

Target: site of dopamine reuptake (Rattus norvegicus)
Construct: The striata are removed immediately and then stored at -80° C. until used; from tissue; host or cells: rat striatum membranes (male CD Sprague-Dawley)
Assay: Inhibition of binding at the site of dopamine reuptake in vitro in rat striatum ([3H]mazindol)
Design: species or system rat (male, CD Sprague-Dawley)
Details: Inhibition of binding at the site of dopamine reuptake IC50, rat striatum, pH 7.7, mean of three tests
pIC50: −log10 of the molar value. Structures can show the parent of a compound that is named as a salt.
Each entry below lists one item and its recorded pIC50 value.
Parameter measured: pIC50

[[record]]
molecule = "CC(C)(C)NCC(SCC(N)=O)c1ccc(Cl)c(Cl)c1 (racemic)"
test_value = 7.51

[[record]]
molecule = "CCC(C)(C)NCC(SCC(N)=O)c1ccc(Cl)c(Cl)c1 (stereo not drawn) [CRL 42 059, hydrochloride]"
test_value = 7.13

[[record]]
molecule = "NC(=O)CSC(CNC12CC3CC(CC(C3)C1)C2)c1ccc(Cl)c(Cl)c1 (stereo not drawn)"
test_value = 7.40


###

Each entry below lists one item and its recorded IC50 value.
Biological target: site of dopamine reuptake (Rattus norvegicus)
Construct: The striata are removed immediately and then stored at -80° C. until used; from tissue; host or cells: rat striatum membranes (male CD Sprague-Dawley)
Assay: Inhibition of binding at the site of dopamine reuptake in vitro in rat striatum ([3H]mazindol)
Design: species or system rat (male, CD Sprague-Dawley)
Settings: rat striatum, pH 7.7, mean of three tests, read-out: Inhibition of binding at the site of dopamine reuptake IC50
Structures can show the parent of a compound that is named as a salt.
Parameter measured: IC50

[[record]]
molecule = "CC(C)(C)NCC(SCC(N)=O)c1ccc(Cl)c(Cl)c1 (single isomer, unassigned) [CRL 41 789, hydrochloride]"
assayed_target = "site of dopamine reuptake (Rattus norvegicus)"
test_value = "44 nM"

[[record]]
molecule = "CC(C)(C)NCC(SCC(N)=O)c1ccc(Cl)c(Cl)c1 (single isomer, unassigned) [CRL 41 790, hydrochloride]"
assayed_target = "site of dopamine reuptake (Rattus norvegicus)"
test_value = "1100 nM"

